Reference source for all entries: ChEMBL document CHEMBL3297718

- Method Summary: Antioxidant activity assessed as ferric ion reducing activity using fe3+-TPTZ at 200 mg/ml measured as ascorbic acid per 100 g sample by FRAP assay
- Format: physicochemical
Observable: Activity (mmol)
Provide only the numeric value, understood in mmol.

- Query Smiles: "Cc1cn(-c2c(C=O)c(C)nn2-c2ccccc2)cn1"
  Measured Value: 213.24

Exercise: Please give the measured Activity for this compound: `Cc1nn(-c2ccccc2)c(-n2ccnc2)c1-c1cc(-c2cc3ccccc3oc2=O)nc(N)c1C#N`
Key: 401.22

Exercise: What value of Activity has been recorded for this entry: `COc1ccc(-c2cc(-c3c(C)nn(-c4ccccc4)c3-n3cnc(C)c3)c(C#N)c(N)n2)cc1`
Key: 178.82

###

- Test system: Aspergillus fumigatus
- Method Summary: Antimicrobial activity against Aspergillus fumigatus MTCC 3008 by broth microdilution method
- Type: functional
Observable: MIC (mg/L)
Give the number; mg/L is assumed, so skip it.

Exercise: Form field: MIC recorded for `Cc1nn(-c2ccccc2)c(-n2ccnc2)c1-c1cc(-c2ccc(F)cc2)nc(N)c1C#N` with Aspergillus fumigatus (enter value)
Key: 1000

###

- Test system: Salmonella typhi
- Method Summary: Antimicrobial activity against Salmonella typhi MTCC 98 by broth microdilution method
- Type: functional, Salmonella enterica subsp. enterica serovar Typhi
- Test Parameters: Salmonella enterica
Observable: MIC (µg/mL)
Numbers only; they are read as µg/mL.

- Query Smiles: "Cc1cn(-c2c(-c3cc(-c4ccccc4)nc(N)c3C#N)c(C)nn2-c2ccccc2)cn1"
  MIC / µg/mL: 250
- Query Smiles: "Cc1nn(-c2ccccc2)c(-n2ccnc2)c1-c1cc(-c2cccs2)nc(N)c1C#N"
  MIC / µg/mL: 500
- Query Smiles: "COc1ccc(-c2cc(-c3c(C)nn(-c4ccccc4)c3-n3cnc(C)c3)c(C#N)c(N)n2)cc1"
  MIC / µg/mL: 250
- Query Smiles: "Cc1cn(-c2c(-c3cc(-c4ccc5c(c4)OC(C)(C)O5)nc(N)c3C#N)c(C)nn2-c2ccccc2)cn1"
  MIC / µg/mL: 62.5
- Query Smiles: "Cc1cn(-c2c(C=O)c(C)nn2-c2ccccc2)cn1"
  MIC / µg/mL: 200

Exercise: Kindly state the measured MIC obtained for `Cc1nn(-c2ccccc2)c(-n2ccnc2)c1-c1cc(-c2ccco2)nc(N)c1C#N` with Salmonella typhi.
Key: 100

Exercise: Query for Salmonella typhi: what MIC does the record show for `Cc1nn(-c2ccccc2)c(-n2ccnc2)c1-c1cc(-c2ccccc2)nc(N)c1C#N` ?
Key: 200

Exercise: Recorded MIC for `Cc1nn(-c2ccccc2)c(-n2ccnc2)c1C=O` with Salmonella typhi, please?
Key: 125

Exercise: Param readout = MIC; param system = Salmonella typhi; param query = `Cc1nn(-c2ccccc2)c(-n2ccnc2)c1-c1cc(-c2ccc(F)cc2)nc(N)c1C#N` ; response: value
Key: 500

Exercise: // map `Cc1cn(-c2c(-c3cc(-c4ccc(-c5ccccc5)cc4)nc(N)c3C#N)c(C)nn2-c2ccccc2)cn1` to recorded MIC (system: Salmonella typhi)
Key: 200

Exercise: Item: `Cc1cn(-c2c(-c3cc(-c4ccco4)nc(N)c3C#N)c(C)nn2-c2ccccc2)cn1` Test system: Salmonella typhi Read-out: MIC Value: ?
Key: 200

Exercise: # query: MIC | item `Cc1cn(-c2c(-c3cc(-c4ccc(Cl)cc4)nc(N)c3C#N)c(C)nn2-c2ccccc2)cn1` | system: Salmonella typhi
Key: 250

Exercise: Find the measured MIC: item `Cc1nn(-c2ccccc2)c(-n2ccnc2)c1-c1cc(-c2ccc(Br)cc2)nc(N)c1C#N` , target or system Salmonella typhi.
Key: 200

Exercise: Could you share what MIC was measured for `Cc1nn(-c2ccccc2)c(-n2ccnc2)c1-c1cc(-c2ccc(-c3ccccc3)cc2)nc(N)c1C#N` , tested on Salmonella typhi?
Key: 125

Exercise: Salmonella typhi / MIC / `COc1ccc(-c2cc(-c3c(C)nn(-c4ccccc4)c3-n3ccnc3)c(C#N)c(N)n2)cc1` : value?
Key: 200

Exercise: Find the measured MIC: item `Cc1cn(-c2c(-c3cc(-c4ccc(Br)cc4)nc(N)c3C#N)c(C)nn2-c2ccccc2)cn1` , target or system Salmonella typhi.
Key: 500

###

- System: Bacillus subtilis
- Method Summary: Antimicrobial activity against Bacillus subtilis MTCC 441 by broth microdilution method
- Type: functional
Observable: MIC (µg/mL)
Hi! Could you send only the number? It should be in µg/mL, unit omitted.

- Query Smiles: "CC1(C)S[C@@H]2[C@H](NC(=O)[C@H](N)c3ccccc3)C(=O)N2[C@H]1C(=O)O"
  Unit Text: "µg/mL"
  Measured Value: 250
- Query Smiles: "Cc1cn(-c2c(-c3cc(-c4cccs4)nc(N)c3C#N)c(C)nn2-c2ccccc2)cn1"
  Unit Text: "µg/mL"
  Measured Value: 500
- Query Smiles: "Cc1nn(-c2ccccc2)c(-n2ccnc2)c1-c1cc(-c2ccc(Cl)cc2)nc(N)c1C#N"
  Unit Text: "µg/mL"
  Measured Value: 500
- Query Smiles: "Cc1cn(-c2c(-c3cc(-c4ccc(Cl)cc4)nc(N)c3C#N)c(C)nn2-c2ccccc2)cn1"
  Unit Text: "µg/mL"
  Measured Value: 500
- Query Smiles: "Cc1cn(-c2c(-c3cc(-c4ccc(-c5ccccc5)cc4)nc(N)c3C#N)c(C)nn2-c2ccccc2)cn1"
  Unit Text: "µg/mL"
  Measured Value: 250
- Query Smiles: "Cc1nn(-c2ccccc2)c(-n2ccnc2)c1-c1cc(-c2ccco2)nc(N)c1C#N"
  Unit Text: "µg/mL"
  Measured Value: 100
- Query Smiles: "COc1ccc(-c2cc(-c3c(C)nn(-c4ccccc4)c3-n3ccnc3)c(C#N)c(N)n2)cc1"
  Unit Text: "µg/mL"
  Measured Value: 100
- Query Smiles: "Cc1nn(-c2ccccc2)c(-n2ccnc2)c1-c1cc(-c2ccccc2)nc(N)c1C#N"
  Unit Text: "µg/mL"
  Measured Value: 200

Exercise: # query: MIC of entry `Cc1nn(-c2ccccc2)c(-n2ccnc2)c1-c1cc(-c2cccs2)nc(N)c1C#N`
Key: 200

Exercise: Recorded MIC for `Cc1cn(-c2c(-c3cc(-c4ccc(Br)cc4)nc(N)c3C#N)c(C)nn2-c2ccccc2)cn1` , please?
Key: 62.5

Exercise: Param item = `Cc1nn(-c2ccccc2)c(-n2ccnc2)c1-c1cc(-c2ccc(-c3ccccc3)cc2)nc(N)c1C#N` ; retrieve measured MIC.
Key: 500

Exercise: Quick one: MIC for `Cc1cn(-c2c(-c3cc(-c4cc5ccccc5oc4=O)nc(N)c3C#N)c(C)nn2-c2ccccc2)cn1` ?
Key: 200

Exercise: Query: MIC; subject: `Cc1nn(-c2ccccc2)c(-n2ccnc2)c1-c1cc(-c2cc3ccccc3oc2=O)nc(N)c1C#N`
Key: 500

###

Each entry below carries its reported Activity.
- Method Summary: Antioxidant activity assessed as ferric ion reducing activity using fe3+-TPTZ at 200 mg/ml measured as ascorbic acid per 100 g sample by FRAP assay
- Assay type: physicochemical
Note: unit mmol is implicit; provide only the numeric part.

- Query Smiles: "Cc1cn(-c2c(-c3cc(-c4cccs4)nc(N)c3C#N)c(C)nn2-c2ccccc2)cn1"
  Activity, mmol: 422.3
- Query Smiles: "Cc1cn(-c2c(-c3cc(-c4cc5ccccc5oc4=O)nc(N)c3C#N)c(C)nn2-c2ccccc2)cn1"
  Activity, mmol: 433.44
- Query Smiles: "Cc1cn(-c2c(-c3cc(-c4ccc(-c5ccccc5)cc4)nc(N)c3C#N)c(C)nn2-c2ccccc2)cn1"
  Activity, mmol: 495.9
- Query Smiles: "Cc1cn(-c2c(-c3cc(-c4ccco4)nc(N)c3C#N)c(C)nn2-c2ccccc2)cn1"
  Activity, mmol: 397.24
- Query Smiles: "Cc1nn(-c2ccccc2)c(-n2ccnc2)c1C=O"
  Activity, mmol: 242.88
- Query Smiles: "Cc1nn(-c2ccccc2)c(-n2ccnc2)c1-c1cc(-c2ccc(-c3ccccc3)cc2)nc(N)c1C#N"
  Activity, mmol: 497.1
- Query Smiles: "Cc1cn(-c2c(-c3cc(-c4ccc(Cl)cc4)nc(N)c3C#N)c(C)nn2-c2ccccc2)cn1"
  Activity, mmol: 404.8
- Query Smiles: "Cc1nn(-c2ccccc2)c(-n2ccnc2)c1-c1cc(-c2ccco2)nc(N)c1C#N"
  Activity, mmol: 456.32

Exercise: Quick one: Activity for `Cc1cn(-c2c(-c3cc(-c4ccc5c(c4)OC(C)(C)O5)nc(N)c3C#N)c(C)nn2-c2ccccc2)cn1` ?
Key: 384.91

Exercise: Quick one: Activity for `Cc1nn(-c2ccccc2)c(-n2ccnc2)c1-c1cc(-c2ccc(Cl)cc2)nc(N)c1C#N` ?
Key: 490.33

###

- System: Bacillus subtilis
- Method Summary: Antimicrobial activity against Bacillus subtilis MTCC 441 by broth microdilution method
- Type: functional
Let's look at some compounds and their measured MIC.
Dear colleague, please return just the value in µg/mL, with no unit written.

- Query Smiles: "COc1ccc(-c2cc(-c3c(C)nn(-c4ccccc4)c3-n3cnc(C)c3)c(C#N)c(N)n2)cc1"
  Observable: "MIC"
  Measured Value: 250
- Query Smiles: "Cc1cn(-c2c(-c3cc(-c4ccc(F)cc4)nc(N)c3C#N)c(C)nn2-c2ccccc2)cn1"
  Observable: "MIC"
  Measured Value: 500

Exercise: Returns the measured MIC for the input compound. Input: `Cc1cn(-c2c(-c3cc(-c4ccccc4)nc(N)c3C#N)c(C)nn2-c2ccccc2)cn1`
Key: 100

Exercise: Fill in the blank: the reported MIC of `Cc1cn(-c2c(-c3cc(-c4ccc5c(c4)OC(C)(C)O5)nc(N)c3C#N)c(C)nn2-c2ccccc2)cn1` is ____.
Key: 250
